Here, each record is paired with measured composite z-score data.
System: XIP peptide (Xip251-270) binding
Test: small-molecule binders of XIP peptide, primary screen, biochemical, small-molecule microarray, fluorescence 635/667 nm, 0.1 µg/mL protein (AID 1182)
Conditions: fluorescent protein binding, 635 nm, higher = more signal, called active from +8 up or from −8 down
The source made the active and inactive calls.
Value type: composite z-score

- Compound: "CCOC(=O)C1=C[C@@H](C(C)(C)C)N(S(=O)(=O)c2ccc(C)cc2)[C@H]1c1ccccc1Cl"
  Recorded result: "0.646 (inactive)"
- Compound: "C=C(COC)C(=O)CC[C@@H](OC(C)=O)c1ccc(OCCO)cc1"
  Recorded result: "1.61 (inactive)"
- Compound: "COCCOC(=O)N1C(=O)[C@@]2(c3cc(C#Cc4ccc(OC)cc4)ccc31)[C@H](c1ccc(OCCO)cc1)N1[C@H](c3ccccc3)[C@H](c3ccccc3)OC(=O)[C@H]1[C@@H]2C(=O)N1CCCCCCC1"
  Recorded result: "0.92 (inactive)"
- Compound: "CC(C)CNC(=O)[C@@]1(C)c2ccccc2C(=O)N(Cc2cc(F)cc(C(F)(F)F)c2)[C@H]1c1ccc(CO)cc1"
  Recorded result: "2.74 (inactive)"
- Compound: "NCCCC[C@@H]1NC(=O)[C@H]2C[C@@H](C(=O)NCc3ccc(F)cc3)[C@@H](c3cccc(OCCO)c3)N2C1=O"
  Recorded result: "0.752 (inactive)"
- Compound: "[N-]=[N+]=NCc1ccccc1C[C@]1(C(=O)NCc2ccccc2)N=C(c2ccc(OCCCO)cc2)O[C@H]1c1ccccc1CN=[N+]=[N-]"
  Recorded result: "0.99 (inactive)"
- Compound: "COc1ccc(C(O)C2C=CC3C(=O)N(C)C(=O)C3N2Nc2ccc([N+](=O)[O-])cc2[N+](=O)[O-])cc1OCc1ccccc1 (centres undefined)"
  Recorded result: "-0.237 (inactive)"
- Compound: "C=CCOC(=O)[C@H]1[C@@H]2C(=O)O[C@@H](c3ccccc3)[C@@H](c3ccccc3)N2[C@@H](c2ccc(OCCOC(=O)[C@@H]3C[C@@H]4C(=O)N[C@@H](Cc5ccccc5)C(=O)N4[C@@H]3c3ccc(O)cc3)cc2)[C@]12C(=O)Nc1ccccc12"
  Recorded result: "0.819 (inactive)"
- Compound: "Cc1ccc(S(=O)(=O)N2[C@@H](c3ccccc3)C(C(=O)O)=CC[C@H]2c2ccc(C#N)cc2)cc1"
  Recorded result: "0.556 (inactive)"
- Compound: "COc1ccc(NN2C(C(O)c3ccc(OC)cc3)C=CC3C(=O)N(C4CCCCC4)C(=O)C32)cc1 (centres undefined)"
  Recorded result: "1.3 (inactive)"
- Compound: "COCCOC(=O)N1C(=O)[C@@]2(c3ccccc31)[C@H](C(=O)N1CCCCCCC1)[C@H]1C(=O)O[C@H](c3ccccc3)[C@H](c3ccccc3)N1[C@@H]2c1ccc(O)cc1"
  Recorded result: "3.54 (inactive)"
- Compound: "O=C(NCC(F)(F)F)[C@@H]1c2ccccc2C(=O)N(CC23CC4CC(CC(C4)C2)C3)[C@H]1c1ccc(CO)cc1"
  Recorded result: "0.35 (inactive)"
- Compound: "[N-]=[N+]=NCc1ccccc1C[C@]1(C(=O)N2CCOCC2)N=C(c2ccc(OCCCO)cc2)O[C@H]1c1ccccc1CN=[N+]=[N-]"
  Recorded result: "0.158 (inactive)"
- Compound: "CCC(CC)C(O)C1C=CC2C(=O)N(C)C(=O)C2N1N1CCCCC1 (centres undefined)"
  Recorded result: "0.865 (inactive)"
